So I've got a bunch of compounds here, and I need their pIC50 values.
- TESTED SYSTEM: Xanthine dehydrogenase/oxidase (Bos taurus)
- Sequence (P80457 whole entry): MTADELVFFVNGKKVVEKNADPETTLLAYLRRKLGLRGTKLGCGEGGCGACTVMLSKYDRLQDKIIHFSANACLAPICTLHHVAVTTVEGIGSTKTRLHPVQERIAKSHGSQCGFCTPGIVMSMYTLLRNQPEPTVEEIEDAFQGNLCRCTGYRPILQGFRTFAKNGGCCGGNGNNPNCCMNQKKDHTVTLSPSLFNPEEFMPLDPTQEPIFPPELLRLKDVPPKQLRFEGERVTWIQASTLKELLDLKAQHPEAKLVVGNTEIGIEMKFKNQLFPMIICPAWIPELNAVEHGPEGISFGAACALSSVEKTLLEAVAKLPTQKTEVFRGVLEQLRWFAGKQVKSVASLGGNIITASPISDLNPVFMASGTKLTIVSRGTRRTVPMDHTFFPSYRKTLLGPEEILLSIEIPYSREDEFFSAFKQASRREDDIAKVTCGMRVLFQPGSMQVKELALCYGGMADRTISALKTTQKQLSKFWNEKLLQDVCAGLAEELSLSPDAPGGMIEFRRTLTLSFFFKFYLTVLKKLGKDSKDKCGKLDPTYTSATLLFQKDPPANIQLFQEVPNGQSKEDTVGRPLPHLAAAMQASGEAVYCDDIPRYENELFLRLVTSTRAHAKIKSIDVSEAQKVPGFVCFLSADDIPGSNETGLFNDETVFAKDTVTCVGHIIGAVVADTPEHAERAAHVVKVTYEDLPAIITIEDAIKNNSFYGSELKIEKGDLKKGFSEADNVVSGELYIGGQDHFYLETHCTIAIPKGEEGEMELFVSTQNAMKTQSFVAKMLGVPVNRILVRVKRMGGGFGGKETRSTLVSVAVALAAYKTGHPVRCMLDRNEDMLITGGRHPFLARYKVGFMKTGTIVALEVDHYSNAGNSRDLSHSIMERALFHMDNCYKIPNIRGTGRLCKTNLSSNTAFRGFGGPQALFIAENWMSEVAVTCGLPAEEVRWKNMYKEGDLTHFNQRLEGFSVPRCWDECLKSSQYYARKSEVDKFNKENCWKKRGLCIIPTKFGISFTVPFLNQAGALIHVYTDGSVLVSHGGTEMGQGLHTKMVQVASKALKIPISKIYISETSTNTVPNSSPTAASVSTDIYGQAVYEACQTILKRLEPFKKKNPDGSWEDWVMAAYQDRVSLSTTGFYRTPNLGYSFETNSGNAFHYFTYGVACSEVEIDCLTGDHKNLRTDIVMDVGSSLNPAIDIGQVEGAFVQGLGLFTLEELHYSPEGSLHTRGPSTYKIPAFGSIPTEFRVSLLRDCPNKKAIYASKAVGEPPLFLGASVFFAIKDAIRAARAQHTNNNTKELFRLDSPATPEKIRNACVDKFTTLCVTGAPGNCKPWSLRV
- ASSAY PROTOCOL: Inhibition of bovine milk xanthine oxidase using xanthine as substrate pretreated for 15 mins followed by substrate addition measured after 8 mins
- SETTINGS: read-out: IC50
Numbers only, as −log10 of the molar value.

# count of solved cases: 5
CHEM SMILES	pIC50
O=c1ccc(/N=N/c2cccc(Cl)c2)ccc1O	4.77
O=c1ccc(/N=N/c2cccc(F)c2)ccc1O	5.05
COc1cccc(/N=N/c2ccc(O)c(=O)cc2)c1	4.35
COC(=O)c1cccc(/N=N/c2ccc(O)c(=O)cc2)c1	4.10
Cc1c(/N=N/c2ccc(O)c(=O)cc2)cccc1[N+](=O)[O-]	4.64

Please go through the list and note pIC50 for each compound.
1. COc1cc(/N=N/c2ccc(O)c(=O)cc2)cc(OC)c1OC
2. O=c1ccc(/N=N/c2cccc(C(F)(F)F)c2)ccc1O

[4.24, 5.13]
